system: Porcine Atria myofibrils; test: Myofibril ATPase assay (PK/LDH NADH-coupled), atria myofibrils; type: biochemical; details: Table 8
Rule: Porcine Atria IC25 below 60 nM gives Met, anything at or above gives Not met.

Completed entries (count: 3):
- compound: "Cc1nsc([C@@H](C)NC(=O)CN2Cc3c(ccc(F)c3F)NC2=O)n1"
  classification: "Not met"
- compound: "C[C@H](NC(=O)CN1C(=O)Nc2ccccc2[C@H]1C)c1ccc(F)cc1F [Compound B155]"
  classification: "Not met"
- compound: "C[C@@H](NC(=O)CN1C(=O)Nc2ccc(F)cc2C12CC2)c1ncc(F)cc1F"
  classification: "Not met"

Request: Please state whether Porcine Atria IC25 is below 60 nM for `C[C@H](NC(=O)CN1C(=O)Nc2ccccc2[C@@H]1C)c1ncc(F)cc1F`
Result: Not met
